Molecular target: HIF-1α (Homo sapiens, UniProt Q16665)
Construct: recombinant protein HIF-1α (MCE #HY-P74888)
Sequence (Q16665 whole entry): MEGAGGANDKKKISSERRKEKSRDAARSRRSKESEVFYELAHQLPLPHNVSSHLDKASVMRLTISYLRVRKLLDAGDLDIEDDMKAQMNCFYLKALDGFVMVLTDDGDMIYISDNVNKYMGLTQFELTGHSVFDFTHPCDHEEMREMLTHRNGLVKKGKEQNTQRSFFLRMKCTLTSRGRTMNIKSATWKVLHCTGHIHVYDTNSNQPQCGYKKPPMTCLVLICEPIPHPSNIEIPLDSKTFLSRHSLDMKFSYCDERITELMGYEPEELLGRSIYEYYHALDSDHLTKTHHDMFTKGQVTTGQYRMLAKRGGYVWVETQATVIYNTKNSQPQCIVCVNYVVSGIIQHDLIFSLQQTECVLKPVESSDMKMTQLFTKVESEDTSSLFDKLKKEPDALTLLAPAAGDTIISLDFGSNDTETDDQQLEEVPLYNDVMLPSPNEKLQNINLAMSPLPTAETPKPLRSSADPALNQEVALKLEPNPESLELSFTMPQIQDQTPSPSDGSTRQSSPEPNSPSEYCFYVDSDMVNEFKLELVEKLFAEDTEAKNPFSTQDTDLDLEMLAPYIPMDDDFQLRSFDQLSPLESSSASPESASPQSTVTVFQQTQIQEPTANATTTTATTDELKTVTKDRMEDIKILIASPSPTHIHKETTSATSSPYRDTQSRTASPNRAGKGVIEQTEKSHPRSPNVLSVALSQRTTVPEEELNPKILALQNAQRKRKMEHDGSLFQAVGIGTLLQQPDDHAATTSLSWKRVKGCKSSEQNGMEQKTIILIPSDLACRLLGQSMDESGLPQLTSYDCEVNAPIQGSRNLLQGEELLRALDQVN
Test: SPR (Biacore T200, HIF-1α amine-coupled to CM5 chip)
recordedEndpoint: Kd (µM)
Give the value in µM but do not write µM after it.

Form field Kd for item COc1cc2c(c(O)c1OC)-c1c(cc3c(c1OC)OCO3)[C@H](OC(C)=O)[C@H](C)[C@H](C)C2 on HIF-1α (Homo sapiens, UniProt Q16665): 13

Origin of measurements: paper PMC12692955
